- target under test: androgen receptor (rat ventral prostate cytosol) (Rattus norvegicus, UniProt P15207)
- Construct: from tissue; host or cells: ventral prostate cytosol of castrated male Sprague Dawley or Wistar rats
- Sequence (P15207 whole entry S389L): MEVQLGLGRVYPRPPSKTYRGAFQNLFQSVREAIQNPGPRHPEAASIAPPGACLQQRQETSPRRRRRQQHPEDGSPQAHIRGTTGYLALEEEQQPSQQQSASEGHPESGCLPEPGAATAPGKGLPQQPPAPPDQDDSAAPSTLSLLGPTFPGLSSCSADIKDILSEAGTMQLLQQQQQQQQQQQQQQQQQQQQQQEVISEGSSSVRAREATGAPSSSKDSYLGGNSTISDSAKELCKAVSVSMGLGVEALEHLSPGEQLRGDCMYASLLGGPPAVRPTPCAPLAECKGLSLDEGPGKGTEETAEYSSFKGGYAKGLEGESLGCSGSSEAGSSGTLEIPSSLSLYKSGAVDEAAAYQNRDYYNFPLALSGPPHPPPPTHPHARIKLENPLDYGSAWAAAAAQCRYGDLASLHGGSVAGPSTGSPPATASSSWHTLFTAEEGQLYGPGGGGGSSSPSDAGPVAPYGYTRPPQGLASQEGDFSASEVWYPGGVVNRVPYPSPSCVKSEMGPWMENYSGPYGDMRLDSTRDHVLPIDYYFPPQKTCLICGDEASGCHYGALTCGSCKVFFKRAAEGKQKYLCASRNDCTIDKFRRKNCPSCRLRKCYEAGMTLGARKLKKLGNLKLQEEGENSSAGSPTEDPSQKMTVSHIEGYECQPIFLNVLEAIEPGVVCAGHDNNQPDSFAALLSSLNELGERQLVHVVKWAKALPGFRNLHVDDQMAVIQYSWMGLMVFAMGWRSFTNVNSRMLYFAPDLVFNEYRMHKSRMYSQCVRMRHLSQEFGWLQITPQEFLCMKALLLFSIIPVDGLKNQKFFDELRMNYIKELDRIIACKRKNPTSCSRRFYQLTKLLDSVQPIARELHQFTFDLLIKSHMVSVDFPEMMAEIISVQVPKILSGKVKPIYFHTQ
- measurement protocol: Androgen Receptor Binding Using Rat Ventral Prostate Cytosol
- condition label: read-out: IC50 (nM), Androgen Receptor Binding (Rat Cytosol)
Categorize each record by its IC50 using bottom (below 300 nM), middle (300 nM to below 4000 nM), top (4000 nM or more)

Which class is correct for the following molecule? COc1cccc(CN2CCC(O)(c3cc4cc([N+](=O)[O-])c(C(F)(F)F)cc4[nH]3)CC2)c1 [Compound 39]
top

Dear colleague, I would appreciate it if you could identify the bin for CC(O)(CSc1ccc(Cl)c(Cl)c1)c1cc2cc([N+](=O)[O-])c(C(F)(F)F)cc2[nH]1 (stereo not shown) and reply at your convenience.
bottom

Looking at CC(O)(CSCC(F)(F)F)c1cc2cc([N+](=O)[O-])c(C(F)(F)F)cc2[nH]1 (stereo not shown) , which class would you pick?
middle

Class label required: O=[N+]([O-])c1cc2cc(C3(O)CCN(Cc4ccc(Cl)cc4)CC3)[nH]c2cc1C(F)(F)F [Compound 41]
middle

Would you mind sorting CC(O)(CSc1ccc(Cl)c(Cl)c1)c1cc2cc(Cl)c(C(F)(F)F)cc2n1S(C)(=O)=O (stereo not shown) into the appropriate category?
bottom

Classify this molecule: `CS(=O)(=O)c1ccc(CN2CCC(O)(c3cc4cc(Cl)c(C(F)(F)F)cc4[nH]3)CC2)cc1`
top

GET /class?item= Cc1ccc(CN2CCC(O)(c3cc4cc([N+](=O)[O-])c(C(F)(F)F)cc4[nH]3)CC2)cc1 [Compound 42]
top

Hey, which category is CC(O)(CSc1ccc(F)cc1)c1cc2cc(Cl)c(C(F)(F)F)cc2[nH]1 (stereo not shown) in, do you know?
bottom

Which band does `O=[N+]([O-])c1cc2cc(C3(O)CCN(Cc4ccc(F)cc4)CC3)[nH]c2cc1C(F)(F)F` fall in?
middle

Which bin, given its IC50, does `OC1(c2cc3cc(Cl)c(C(F)(F)F)cc3[nH]2)CCN(Cc2ccc(Cl)c(Cl)c2)CC1` occupy?
top

Bin this entry: CC(O)(C[S+]([O-])c1ccccc1)c1cc2cc(Cl)c(C(F)(F)F)cc2[nH]1 (stereo not shown)
middle

Class for CC(O)(CSc1ccc(Cl)cc1)c1cc2cc(Cl)c(C(F)(F)F)cc2[nH]1 (stereo not shown) ?
middle

Note: place this molecule into its band. Item: Cc1ccc(CN2CCC(O)(c3cc4cc([N+](=O)[O-])c(C(F)(F)F)cc4[nH]3)CC2)cc1 [Compound 27]
middle

* * *

What % Inhibition, L929 androgen receptor functional assay was measured for each of the following?
- target under test: androgen receptor (AdEasy+rAR, L929 cells) (Rattus norvegicus, UniProt P15207)
- Construct: expressed in transfected cells; host or cells: L929 cells transduced with adenovirus AdEasy+rAR
- Sequence (P15207 whole entry S389L): as above
- measurement protocol: L929 Androgen Receptor Functional Assay, Adenovirus Transduction
- Type: cell-based
- condition label: antagonist testing with R1881, 3000 nM; 3 µM
- Description: L929 cells were plated in 96-well plates at 20,000 cells per well, in DMEM/F12 (GIBCO) containing 10% (v/v) charcoal-treated fetal bovine serum (Hyclone) and lacking phenol red. […] To each well was added 100 μL of Steady-Glo luciferase assay substrate (Promega) and the plates were placed on a rotary shaker for 1 min. […] The contents of each well were then transferred to a white microtiter plate (Packard) and read on a Luminoskan Ascent (Thermo Lab Systems). […]
Number in %, nothing else.

Indicate the recorded % Inhibition, L929 androgen receptor functional assay value for this compound: CCSCC(O)c1cc2cc([N+](=O)[O-])c(C(F)(F)F)cc2[nH]1 (centres unmarked) [Compound 158]
29

Supply measured % Inhibition, L929 androgen receptor functional assay of CCS(=O)(=O)C[C@](C)(O)c1cc2cc([N+](=O)[O-])c(C(F)(F)F)cc2[nH]1 [Compound 156] in your reply.
23

Identify measured % Inhibition, L929 androgen receptor functional assay corresponding to CC(O)(CS(C)(=O)=O)c1cc2cc([N+](=O)[O-])c(C(F)(F)F)cc2[nH]1 (centres unmarked) [Compound 140]
78

Give the value of % Inhibition, L929 androgen receptor functional assay reported for the following: CC(O)(CS(C)(=O)=O)c1cc2cc([N+](=O)[O-])c(C(F)(F)F)cc2[nH]1 (centres unmarked) [Compound 147]
43

Consider the compound CCSCC(C)(O)c1cc2cc(C#N)c(C(F)(F)F)cc2[nH]1 (centres unmarked) [Compound 218] . State its measured % Inhibition, L929 androgen receptor functional assay.
62

Give a short answer stating reported % Inhibition, L929 androgen receptor functional assay for CCSCC(C)(O)c1[nH]c2cc(C(F)(F)F)c(C#N)cc2c1C (single isomer, unassigned) [Compound 234] .
99

Identify measured % Inhibition, L929 androgen receptor functional assay associated with CCS(=O)(=O)CC(C)(O)c1[nH]c2cc(C(F)(F)F)c(C#N)cc2c1C (single isomer, unassigned) [Compound 252]
65

Indicate its recorded % Inhibition, L929 androgen receptor functional assay; the compound in question is CC(O)(CS(C)(=O)=O)c1cc2cc([N+](=O)[O-])c(C(F)(F)F)cc2[nH]1 (centres unmarked) [Compound 148]
77
